Record form. Attribute: TGI. Fill in for each entry.
tested on: HOP-62 NSCLC; experiment: NCI tumour cell line growth inhibition, 48 h
*1 amine or outer side, *2 acyl side, *3 side chain or, on linkers, in order; H or OH if unused. Where a SMILES comes first, the peptide text is derived from it. Bridges are numbered along the chain shown (N, C = ends). [ ]: non-standard residue; d: D form. The star is where a group is joined. Phe(3-Me) = Cc1cccc(C[C@H](N)C(=O)O)c1; NH(4-Cl-2-F-phenyl) = Fc1cc(Cl)ccc1N*; Pro(4R-Me) = C[C@H]1CN[C@H](C(=O)O)C1; Propanoyl(3-NMe2) = CN(C)CCC(=O)*; Hyp = O=C(O)[C@@H]1C[C@@H](O)CN1; aThr = C[C@H](O)[C@H](N)C(=O)O; Pip = O=C(O)[C@@H]1CCCCN1; CO = O=C([*:1])[*:2]

Cc1cc(-c2nc3cc(F)c(F)cc3s2)ccc1N ... > 71.3 µM
CC(=O)Nc1ccc(-c2nc3ccccc3s2)cc1O ... > 100 µM
O=C1O[C@H]2[C@@H]3OC(=O)c4cc(O)c(O)c(O)c4-c4c(cc(O)c(O)c4O)C(=O)OC[C@H]2O[C@@H](OC(=O)c2cc(O)c(O)c(O)c2)[C@@H]3OC(=O)c2cc(O)c(O)c3c2[C@@H]2C1=CC(=O)C(O)(O)C2(O)O3 (some centres not stated) ... > 100 µM
CC(NC(=O)C(N)CC(=O)O)NC(=O)N1CCCC1 (configuration not stated) ... > 100 µM
[N-]=[N+]=NC1=C(c2ccccc2)C(=O)c2cccc3cccc1c23 ... 91.1 µM

The following compounds each have a reported value; give each one's TGI.
1. C/C(=N/N)c1ccc2[nH]c3c(C)cc([N+](=O)[O-])c(C)c3c2c1
2. CC(C)=CCC[C@H](C)[C@H]1CC[C@@H](C)c2cc(O)c(C)cc21
3. COc1cc2c3c(c4c5ccccc5[nH]c4c2c(OC)c1OC)C(=O)N(CCN1CCCCC1)C3=O
4. CCCCCCCCCC(CCCC(O)CC(=O)O)OC1OC(COC2OC(C)C(O)C(O)C2O)C(O)C(O)C1OC1OC(CO)C(O)C(O)C1OC1OC(C)C(O)C(O)C1O (configuration not stated)
5. O=C1C(Cl)=C(Nc2cccc(O)c2)C(=O)N1c1cccc(Cl)c1Cl
6. Cc1cccc(C[C@H](NC(=O)Nc2ccc(Cl)cc2F)C(=O)N[C@@H]2C(=O)N3C[C@H](OC(=O)CCN(C)C)C[C@H]3C(=O)N3CCCC[C@H]3C(=O)N[C@@H](C)C(=O)N3C[C@H](C)C[C@H]3C(=O)O[C@H]2C)c1 ({NH(4-Cl-2-F-phenyl)-CO}-[Phe(3-Me)][aThr][Hyp](Propanoyl(3-NMe2))[Pip]A[Pro(4R-Me)]; ester 2-C)

Solution:
["20.9 µM", "35.6 µM", "2.79 µM", "> 40 µM", "62.9 µM", "7.24 µM"]

###

For each record, write down the corresponding TGI.
test system: SW-620 colon; assay: NCI tumour cell line growth inhibition, 48 h

Example compounds with recorded TGI:
O=c1[nH]c(=O)n(C2CC(O)C(CO)O2)cc1C#Cc1cc(F)cc(F)c1 (stereo unspecified) ... > 100 µM
CCC(/C(=N\Nc1c(Cl)cc(Cl)cc1Cl)c1ccccc1)n1ccnc1C (stereo unspecified) ... 35.7 µM
OCSc1nn(CO)c(=S)s1 ... > 100 µM
CC(=O)OC1COC(Nn2c(=O)[nH]c3ccccc3c2=O)C(OC(C)=O)C1OC(C)=O (stereo unspecified) ... > 100 µM
CC[C@]12CCCN3CC[C@]4(C(=C(C(=O)OC)C1)Nc1ccccc14)[C@@H]32 ... 33.3 µM

Here's the next entry for you.
Problem: // returns reported TGI for input `COC(=O)c1scc(N)c1-n1ccc(=O)[nH]c1=O`
Solution: > 100 µM

Ref: PubChem BioAssay (NCI)
